These data points were gathered from ChEMBL document CHEMBL5058577.

- System: HEK-293T
- experimentalProtocol: Multiplex assay against HEK293T
- Type: toxicity, cell-based
- experimentalSetup: human, 48 h, 1 µM, compound concentration 1 uM, replicate 1
Exercise: state measured Population Membrane Permeable-Phenotype (%) for each of the compounds provided.
// note: answer is a bare numeric in %

Query block: I have this compound here, CN(C)C(=O)Cn1cc(-c2ccc(-c3nnc4ccccn34)cc2)cn1 , and I need its recorded Population Membrane Permeable-Phenotype (%).
Result block: 0

Query block: If you can, please state the reported Population Membrane Permeable-Phenotype (%) value of CCc1nn2c(C)cc(C)nc2c1Cc1ccc(-c2nnc(C3CCNCC3)o2)cc1 .
Result block: 0

Query block: Data request, read-out Population Membrane Permeable-Phenotype (%), for COCCCN1CCC(NC(=O)c2cc(Cl)c(N)c3c2OCC3)CC1 [PRUCALOPRIDE]
Result block: 1

Query block: Field request: Population Membrane Permeable-Phenotype (%) | item: CN1C[C@H](C(=O)N[C@]2(C)O[C@@]3(O)[C@@H]4CCCN4C(=O)[C@H](Cc4ccccc4)N3C2=O)C[C@@H]2c3cccc4[nH]cc(c34)C[C@H]21.CS(=O)(=O)O [DIHYDROERGOTAMINE MESYLATE]
Result block: 1

Query block: Requested read-out: Population Membrane Permeable-Phenotype (%). Entry: N[C@](CC1c2ccccc2Oc2ccccc21)(C(=O)O)[C@H]1C[C@@H]1C(=O)O
Result block: 2

Query block: What does the data say about its Population Membrane Permeable-Phenotype (%)? Entry: Cc1cc(=O)n(C)c2cc(N3C(=O)CC[C@H](NS(=O)(=O)CC(C)C)[C@H]3c3ccc(Cl)cc3)ccc12
Result block: 0

Query block: Fill in: Population Membrane Permeable-Phenotype (%) of CCCCC[C@H](O)/C=C/[C@H]1[C@H](O)CC(=O)[C@@H]1CCCCCCC(=O)O is ___
Result block: 2

Query block: I am curious: what Population Membrane Permeable-Phenotype (%) value has been reported for Nc1nc(CC(=O)Nc2ccc(CCNC[C@H](O)c3ccccc3)cc2)cs1 ?
Result block: 1

Query block: Name the reported Population Membrane Permeable-Phenotype (%) value associated with the compound COc1cc(Nc2ncc3c(n2)-c2ccc(Cl)cc2C(c2c(F)cccc2OC)=NC3)ccc1C(=O)O
Result block: 0

Query block: Field request: Population Membrane Permeable-Phenotype (%) | item: Cl.Cl.OCCOCCN1CCN(C(c2ccccc2)c2ccc(Cl)cc2)CC1 (stereo not drawn) [HYDROXYZINE HYDROCHLORIDE]
Result block: 1

Query block: What does the record list as Population Membrane Permeable-Phenotype (%) for Cc1c(Cc2ccc3ccccc3n2)c2cc(F)ccc2n1CC(=O)O ?
Result block: 1

Query block: Return reported Population Membrane Permeable-Phenotype (%); argument: C[C@H](NC(=O)CNC(=O)c1cccc(Cl)c1)c1ccccc1
Result block: 0

Query block: Reported Population Membrane Permeable-Phenotype (%), compound Cc1ccc(OCC(O)C(C)NC(C)C)c2c1CCC2.Cl (stereo not drawn) : ____
Result block: 0

---

- Test system: U2OS
- experimentalProtocol: Multiplex assay against U2OS
- Type: toxicity, cell-based
- experimentalSetup: human, 12 h, 1 µM, compound concentration 1 uM, replicate 1
Non-standard residues stand in square brackets, D forms with d. Residues, ends and D or L forms follow the SMILES beside them.
Consider the following molecules; for each one, report its Population Hoechst High Intensity Objects (%).
Dear colleague, please return just the value in %, with no unit written.

Query block: Query (molecule): CCC(=O)OCC(=O)[C@@]1(OC(=O)CC)[C@@H](C)C[C@H]2[C@@H]3CCC4=CC(=O)C=C[C@]4(C)[C@@]3(Cl)[C@@H](O)C[C@@]21C [BECLOMETHASONE DIPROPIONATE] ; field requested: Population Hoechst High Intensity Objects (%)
Result block: 1

Query block: Requested field: Population Hoechst High Intensity Objects (%). Item: O=C(O)CCC/C=C\CC1C(O)CC(O)C1/C=C/C(O)COc1cccc(Cl)c1 (configuration not stated) [CLOPROSTENOL]
Result block: 3

Query block: Using the record for CC(C)C[C@@H]1NC(=O)[C@@H](C(C)C)NC(=O)[C@@H]2CCCN2C(=O)[C@@H](CC(=O)O)NC(=O)[C@@H](Cc2c[nH]c3ccccc23)NC1=O [BQ-123] (cyclo(L[dW][dD]P[dV])) , report its Population Hoechst High Intensity Objects (%).
Result block: 0

Query block: Given the molecule CN(C)C(=O)Cn1cc(-c2ccc(-c3nnc4ccccn34)cc2)cn1 , what is its reported Population Hoechst High Intensity Objects (%)?
Result block: 1

Query block: Look up Population Hoechst High Intensity Objects (%): O=c1nc2[nH]c3ccccc3nc-2c(=O)[nH]1 [ALLOXAZINE]
Result block: 2

Query block: For the molecule O=c1ccc2ccc(OCCCCN3CCN(c4cccc5sccc45)CC3)cc2[nH]1 [BREXPIPRAZOLE] , what Population Hoechst High Intensity Objects (%) is on record?
Result block: 6

Query block: Need Population Hoechst High Intensity Objects (%), item CCCCC[C@H](O)/C=C/[C@H]1[C@H](O)CC(=O)[C@@H]1CCCCCCC(=O)O [ALPROSTADIL]
Result block: 1

Query block: Which Population Hoechst High Intensity Objects (%) value belongs to Cn1cc(C(=O)OCC2CCN(CCNS(C)(=O)=O)CC2)c2ccccc21 ?
Result block: 3

Query block: Name the recorded Population Hoechst High Intensity Objects (%) for CN1CCN(c2ccc(Nc3c4ccccc4nc4ccccc34)cc2)CC1.Cl.Cl.O .
Result block: 0

Query block: Look up Population Hoechst High Intensity Objects (%) for this molecule: Nc1nc(CC(=O)Nc2ccc(CCNC[C@H](O)c3ccccc3)cc2)cs1 [MIRABEGRON]
Result block: 1

Query block: Consider the molecule CN1CCC(C(=O)c2cccc(NC(=O)c3c(F)cc(F)cc3F)n2)CC1 and give its measured Population Hoechst High Intensity Objects (%).
Result block: 2

Query block: What value of Population Hoechst High Intensity Objects (%) has been reported for the following molecule? C=CCN1C[C@H](C(=O)N(CCCN(C)C)C(=O)NCC)C[C@@H]2c3cccc4[nH]cc(c34)C[C@H]21 [CABERGOLINE]
Result block: 2

Query block: Tell me the measured Population Hoechst High Intensity Objects (%) of CN1CCN2c3ccccc3Cc3ccccc3C2C1.Cl (configuration not stated) [MIANSERIN HYDROCHLORIDE] , please.
Result block: 3

Query block: Sample Cc1cc(O)c(-c2ccc([C@@H](C)CN(C)C)cc2)c2c1[nH]c(=O)c1sccc12 — what was its Population Hoechst High Intensity Objects (%)?
Result block: 4

Query block: Requested read-out: Population Hoechst High Intensity Objects (%). Entry: Cc1ccc(OCC(O)C(C)NC(C)C)c2c1CCC2.Cl (configuration not stated)
Result block: 2

Query block: Tell me the measured Population Hoechst High Intensity Objects (%) of COCCn1c(C)c(C)s/c1=N\C(=O)C1C(C)(C)C1(C)C , please.
Result block: 0

Query block: Please look up its Population Hoechst High Intensity Objects (%): C[C@H](NC(=O)CNC(=O)c1cccc(Cl)c1)c1ccccc1
Result block: 3

Query block: Name the reported Population Hoechst High Intensity Objects (%) value associated with the molecule CN(C)C/C=C/C(=O)Nc1ccc(C(=O)N2CCCC(Nc3ncc(Cl)c(-c4c[nH]c5ccccc45)n3)C2)cc1 (configuration not stated)
Result block: 2

Query block: Tell me the measured Population Hoechst High Intensity Objects (%) of Cc1cc(-c2ccc3c(c2)CC[C@H]3N2CC3(CCN(C(=O)Cc4cn5cc(C)sc5n4)CC3)C2)ncn1 [PF-5190457] , please.
Result block: 1

Query block: Any idea what Population Hoechst High Intensity Objects (%) was measured for COC(c1ccccc1)(c1ccccc1)[C@H](Oc1nc(C)cc(C)n1)C(=O)O [AMBRISENTAN] ?
Result block: 2

Query block: I am curious: what Population Hoechst High Intensity Objects (%) value has been reported for CC(C)(O)C(=O)N1CCN(c2ccc(C(F)(F)F)c(C3=C(c4c[nH]c5ccccc45)C(=O)NC3=O)c2)CC1 ?
Result block: 3

Query block: Value lookup for Population Hoechst High Intensity Objects (%); key = O=C(Nc1cc(-c2ccccc2)nn1-c1ccccc1F)c1ccc([N+](=O)[O-])cc1
Result block: 4
